- assayed_target: T1, SPRTN core (E112Q) (human, UniProt Q9H040 26-240, E112Q)
- T1 sequence: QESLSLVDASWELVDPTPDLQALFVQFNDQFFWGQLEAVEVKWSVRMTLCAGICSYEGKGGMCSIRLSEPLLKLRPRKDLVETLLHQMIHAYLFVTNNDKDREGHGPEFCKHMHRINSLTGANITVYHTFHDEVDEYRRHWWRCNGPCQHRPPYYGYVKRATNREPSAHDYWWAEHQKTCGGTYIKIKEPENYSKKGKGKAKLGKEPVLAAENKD
- measurement_notes: ITC; with equimolar M1-Ub4 (linear tetra-ubiquitin; ternary complex); N=0.29 ± 0.01; ITC: 50 mM HEPES pH 7.4, 50 mM NaCl, 0.5 mM TCEP-HCl, 25 °C, one-site model
- measurement_setup: protein: recombinant; tags: none left (N-terminal His removed by TEV); chain copies: 3; single strand

| binder | measurement_units | Kd |
| --- | --- | --- |
| ACGCCTGAAGAGTCTGGTGA (ssDNA) [ssDNA (20 nt), Turner-20bp-F] | nM | 440 |
